tested target: P2X purinoceptor 4 (Rattus norvegicus)
Sequence (P51577 whole entry): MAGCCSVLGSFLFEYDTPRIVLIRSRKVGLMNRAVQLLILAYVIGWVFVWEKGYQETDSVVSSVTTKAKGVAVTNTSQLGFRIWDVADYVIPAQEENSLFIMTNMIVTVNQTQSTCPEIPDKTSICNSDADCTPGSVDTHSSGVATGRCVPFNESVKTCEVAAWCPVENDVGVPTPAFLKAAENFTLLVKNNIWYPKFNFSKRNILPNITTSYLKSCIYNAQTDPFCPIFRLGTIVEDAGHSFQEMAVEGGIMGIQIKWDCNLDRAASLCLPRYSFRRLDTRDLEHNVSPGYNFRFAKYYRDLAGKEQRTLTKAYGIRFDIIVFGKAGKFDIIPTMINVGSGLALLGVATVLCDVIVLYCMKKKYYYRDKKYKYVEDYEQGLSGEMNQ
experimental protocol: Antagonist activity at rat P2X4 receptor assessed as inhibition of ATP-induced calcium influx preincubated for 30 mins followed by ATP addition by Fluo-4 AM dye-based fluorescence assay
measurement label: pIC50
Worth noting: pIC50 values are minus log10 of concentrations stated in mol/L.

| item smiles | pIC50 |
| --- | --- |
| CC(C)N(C(=O)N1c2ccccc2C=Cc2ccccc21)C(C)C | 4.26 |

Now consider a different compound.
Inquiry: Query (compound): "O=C(N1CCCC1)N1c2ccccc2C=Cc2ccccc21" ; field requested: pIC50
Reply text: 4.16

====

tested target: P2X purinoceptor 4 (Mus musculus)
Sequence (Q9JJX6 whole entry): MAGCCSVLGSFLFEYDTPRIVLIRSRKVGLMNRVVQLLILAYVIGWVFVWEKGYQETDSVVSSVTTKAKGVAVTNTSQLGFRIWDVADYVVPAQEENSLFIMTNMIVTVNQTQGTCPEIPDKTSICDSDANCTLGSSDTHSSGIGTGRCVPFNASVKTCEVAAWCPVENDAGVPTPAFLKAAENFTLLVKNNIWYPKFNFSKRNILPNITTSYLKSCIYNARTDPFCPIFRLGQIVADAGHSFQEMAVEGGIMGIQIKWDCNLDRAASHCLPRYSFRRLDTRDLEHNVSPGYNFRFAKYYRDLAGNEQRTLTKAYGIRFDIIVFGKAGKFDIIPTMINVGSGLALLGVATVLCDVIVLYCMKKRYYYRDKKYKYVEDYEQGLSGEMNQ
experimental protocol: Antagonist activity at mouse P2X4 receptor assessed as inhibition of ATP-induced cytosolic calcium influx preincubated for 30 mins followed by ATP addition by Fluo-4 AM dye-based fluorescence assay
measurement label: IC50 (µM)
Number only, in µM; omit the unit.

Sample records with IC50:
| item smiles | IC50 [µM] |
| --- | --- |
| CC(C)N(C(=O)N1c2ccccc2C=Cc2ccccc21)C(C)C | 14.9 |
| O=C(NC1CCCCC1)N1c2ccccc2C=Cc2ccccc21 | 98.4 |
| O=C(N1CCCC1)N1c2ccccc2C=Cc2ccccc21 | 123 |

Now consider a different compound.
Inquiry: Which IC50 is reported with P2X purinoceptor 4 (Mus musculus) for this entry: "O=C(N1CCCCC1)N1c2ccccc2C=Cc2ccccc21" ?
Reply text: 102

====

pIC50 listing for selected compounds.
tested target: P2X purinoceptor 4 (Homo sapiens)
Sequence (Q99571 whole entry): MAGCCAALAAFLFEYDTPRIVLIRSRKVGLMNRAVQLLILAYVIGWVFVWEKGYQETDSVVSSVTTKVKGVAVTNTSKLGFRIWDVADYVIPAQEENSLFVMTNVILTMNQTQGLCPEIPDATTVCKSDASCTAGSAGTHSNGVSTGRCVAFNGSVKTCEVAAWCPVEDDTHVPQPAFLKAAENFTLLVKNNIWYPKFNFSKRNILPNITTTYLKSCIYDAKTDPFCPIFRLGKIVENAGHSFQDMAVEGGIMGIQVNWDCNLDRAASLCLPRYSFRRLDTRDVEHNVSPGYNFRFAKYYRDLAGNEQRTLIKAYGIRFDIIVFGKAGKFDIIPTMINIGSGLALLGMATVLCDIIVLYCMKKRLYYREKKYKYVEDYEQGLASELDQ
experimental protocol: Antagonist activity at human P2X4 receptor expressed in human 1321N1 cells assessed as inhibition of ATP-induced cytosolic calcium influx preincubated for 30 mins followed by ATP addition by Fluo-4 AM dye-based fluorescence assay
Worth noting: pIC50 values are minus log10 of concentrations stated in mol/L.

| item smiles | pIC50 |
| --- | --- |
| O=C(c1ccccc1)N1c2ccccc2C=Cc2ccccc21 | 4.63 |
| CC(C)COC(=O)N1c2ccccc2C=Cc2ccccc21 | 4.00 |
| NC(=O)N1c2ccccc2C=Cc2cc(O)ccc21 | 3.84 |
| CCN(CC)C(=O)N1c2ccccc2C=Cc2ccccc21 | 4.94 |
| COC(=O)N1c2ccccc2C=Cc2ccccc21 | 4.00 |

Inquiry: Query (compound): "O=C(N1CCCCC1)N1c2ccccc2C=Cc2ccccc21" ; field requested: pIC50
Reply text: 4.86

Inquiry: Another compound to check: "CCN(CC)C(=O)N1c2ccccc2C=Cc2ccncc21"
Reply text: 4.00

Inquiry: Another compound to check: "NC(=O)N1c2ccccc2C=Cc2ccc(C(F)(F)F)cc21"
Reply text: 4.26

Inquiry: Another compound to check: "COc1ccc(CCNC(=O)N2c3ccccc3C=Cc3ccccc32)cc1"
Reply text: 4.56

Inquiry: Another compound to check: "CCCN(CCC)C(=O)N1c2ccccc2C=Cc2ccccc21"
Reply text: 5.11

Inquiry: Another compound to check: "CN(C)c1ccc2c(c1)N(C(N)=O)c1ccccc1C=C2"
Reply text: 4.82

====

tested target: UniProt:P56373
Sequence (P56373 whole entry): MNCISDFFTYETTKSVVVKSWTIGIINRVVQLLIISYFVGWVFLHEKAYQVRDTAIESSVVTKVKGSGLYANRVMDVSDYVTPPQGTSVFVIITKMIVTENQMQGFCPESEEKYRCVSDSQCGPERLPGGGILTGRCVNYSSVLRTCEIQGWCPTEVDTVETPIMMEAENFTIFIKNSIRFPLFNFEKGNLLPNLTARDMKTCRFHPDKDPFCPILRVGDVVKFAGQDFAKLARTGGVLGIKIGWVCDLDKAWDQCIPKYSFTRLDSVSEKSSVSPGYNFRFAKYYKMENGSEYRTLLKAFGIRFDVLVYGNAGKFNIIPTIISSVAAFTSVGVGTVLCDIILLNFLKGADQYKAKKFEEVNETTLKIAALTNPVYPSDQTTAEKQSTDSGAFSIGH
experimental protocol: Antagonist activity at human P2X3 receptor expressed in human 1321N1 cells assessed as inhibition of ATP-induced cytosolic calcium influx preincubated for 30 mins followed by ATP addition by Fluo-4 AM dye-based fluorescence assay
measurement label: pIC50
Worth noting: pIC50 values are minus log10 of concentrations stated in mol/L.

Sample records with pIC50:
| item smiles | pIC50 |
| --- | --- |
| CC(C)N(C(=O)N1c2ccccc2C=Cc2ccccc21)C(C)C | 5.14 |
| O=C(N1CCCC1)N1c2ccccc2C=Cc2ccccc21 | 4.53 |
| CCN(CC)C(=O)N1c2ccccc2C=Cc2ccccc21 | 4.85 |
| O=C(NC1CCCCC1)N1c2ccccc2C=Cc2ccccc21 | 4.55 |
| CCCN(CCC)C(=O)N1c2ccccc2C=Cc2ccccc21 | 4.82 |

Now consider a different molecule.
Inquiry: Query (molecule): "O=C(N1CCCCC1)N1c2ccccc2C=Cc2ccccc21" ; field requested: pIC50
Reply text: 5.10

Taken from ChEMBL document CHEMBL3102848.
